- Test system: HCC1599
- Test description: normalised response (% of control), CellTiter-Glo; higher = more viable cells (100 = DMSO, 0 = benzethonium chloride kill control)
- Condition description: incubation time: 72 h
Recorded endpoint: normalised response (%)
Numeric only. Scale: %

Record CC[C@H](Nc1ncnc2[nH]cnc12)c1nc2cccc(F)c2c(=O)n1-c1ccccc1 [GS-1101] (10 nM) : what is its normalised response with HCC1599? 112

Record O=C(O)C1(C(=O)O)CCC1.[NH2-].[NH2-].[Pt+2] [Carboplatin] (1 nM) : what is its normalised response with HCC1599? 103

Record CC[C@H](C)C(=O)O[C@H]1C[C@H](O)C=C2C=C[C@H](C)[C@H](CC[C@@H](O)C[C@@H](O)CC(=O)O)[C@H]21 [Pravastatin] (1 nM) : what is its normalised response with HCC1599? 117

Record CCN(CC)CCCC(C)Nc1c2ccc(Cl)cc2nc2ccc(OC)cc12 (centres undefined) [Mepacrine] (5000 nM) : what is its normalised response with HCC1599? 101

----------
- System: MDA-MB-231
- Test description: normalised response (% of control), CellTox Green; higher = less cell death (100 = DMSO, 0 = benzethonium chloride kill control)
- Condition description: incubation time: 72 h
Recorded endpoint: normalised response (%)
Numeric only. Scale: %

What measured normalised response goes with O=C(O)CCCCC(CCSCc1ccccc1)SCc1ccccc1 (stereo not given) [CPI-613] (1000 nM) ? 109

What measured normalised response goes with CC1=C(/C=C/C(C)=C/C=C/C(C)=C/C(=O)O)C(C)(C)CCC1 [Tretinoin] (10000 nM) ? 36.8

What measured normalised response goes with O=C(O)C(=O)O.[NH-][C@@H]1CCCC[C@H]1[NH-].[Pt+2] [Oxaliplatin] (10000 nM) ? 93.5

What measured normalised response goes with CCCCC(=O)OCC(=O)[C@]1(O)Cc2c(O)c3c(c(O)c2[C@@H](O[C@H]2C[C@H](NC(=O)C(F)(F)F)[C@H](O)[C@H](C)O2)C1)C(=O)c1c(OC)cccc1C3=O [Valrubicin] (50 nM) ? 122

What measured normalised response goes with CCCCC(=O)OCC(=O)[C@]1(O)Cc2c(O)c3c(c(O)c2[C@@H](O[C@H]2C[C@H](NC(=O)C(F)(F)F)[C@H](O)[C@H](C)O2)C1)C(=O)c1c(OC)cccc1C3=O [Valrubicin] (500 nM) ? 157

What measured normalised response goes with N#Cc1ccc(C(c2ccc(C#N)cc2)n2cncn2)cc1 [Letrozole] (10000 nM) ? 105

What measured normalised response goes with CC1=C(/C=C/C(C)=C/C=C/C(C)=C/C(=O)O)C(C)(C)CCC1 [Tretinoin] (1000 nM) ? 96.5

What measured normalised response goes with C=CCc1cccc(/C=N/NC(=O)CN2CCN(Cc3ccccc3)CC2)c1O [PAC-1] (100 nM) ? 116

What measured normalised response goes with C=CCc1cccc(/C=N/NC(=O)CN2CCN(Cc3ccccc3)CC2)c1O [PAC-1] (10000 nM) ? 86.4

What measured normalised response goes with CC1=C(/C=C/C(C)=C/C=C/C(C)=C/C(=O)O)C(C)(C)CCC1 [Tretinoin] (100 nM) ? 117

----------
Provide the recorded normalised response for the entries that follow.
- Test system: MFM-223
- Test description: normalised response (% of control), CellTox Green; higher = less cell death (100 = DMSO, 0 = benzethonium chloride kill control)
- Condition description: incubation time: 72 h
Report field: quantity (unit follows the number).

What measured normalised response goes with CCN(CC)CCCC(C)Nc1c2ccc(Cl)cc2nc2ccc(OC)cc12 (centres undefined) [Mepacrine] (50000 nM) ? 84.8%

What measured normalised response goes with COc1cc([C@@H]2c3cc4c(cc3[C@@H](O[C@@H]3O[C@@H]5CO[C@@H](c6cccs6)O[C@H]5[C@H](O)[C@H]3O)[C@H]3COC(=O)[C@H]23)OCO4)cc(OC)c1O [Teniposide] (1000 nM) ? 69.6%

What measured normalised response goes with Cc1cnc(NC(=O)Nc2cc(Br)c(C)cc2OC[C@@H]2CNCCO2)cn1 [Rabusertib] (10 nM) ? 109%

What measured normalised response goes with COc1cc2c(Oc3ccc4[nH]c(C)cc4c3F)ncnc2cc1OCCCN1CCCC1 [Cediranib] (10 nM) ? 106%

What measured normalised response goes with O=C(/C=C/c1cccnc1)NCCCCC1CCN(C(=O)c2ccccc2)CC1 [Daporinad] (1000 nM) ? 88.1%

What measured normalised response goes with O=C(Cc1ccc(-c2ccc(OCCN3CCOCC3)cc2)cn1)NCc1ccccc1 [KX2-391] (100 nM) ? 75.7%

What measured normalised response goes with O=C(Cc1ccc(-c2ccc(OCCN3CCOCC3)cc2)cn1)NCc1ccccc1 [KX2-391] (10000 nM) ? 28%

What measured normalised response goes with O=C(O)C1(C(=O)O)CCC1.[NH2-].[NH2-].[Pt+2] [Carboplatin] (10000 nM) ? 94%

What measured normalised response goes with N#Cc1ccc(C(c2ccc(C#N)cc2)n2cncn2)cc1 [Letrozole] (10000 nM) ? 100%

What measured normalised response goes with CCCS(=O)(=O)Nc1ccc(F)c(C(=O)c2c[nH]c3ncc(-c4ccc(Cl)cc4)cc23)c1F [Vemurafenib] (10000 nM) ? 97.7%

What measured normalised response goes with CCCCC(=O)OCC(=O)[C@]1(O)Cc2c(O)c3c(c(O)c2[C@@H](O[C@H]2C[C@H](NC(=O)C(F)(F)F)[C@H](O)[C@H](C)O2)C1)C(=O)c1c(OC)cccc1C3=O [Valrubicin] (500 nM) ? 108%

What measured normalised response goes with CC[C@H](C)C(=O)O[C@H]1C[C@H](O)C=C2C=C[C@H](C)[C@H](CC[C@@H](O)C[C@@H](O)CC(=O)O)[C@H]21 [Pravastatin] (10000 nM) ? 63.1%

What measured normalised response goes with CCCS(=O)(=O)Nc1ccc(F)c(C(=O)c2c[nH]c3ncc(-c4ccc(Cl)cc4)cc23)c1F [Vemurafenib] (1000 nM) ? 98%

What measured normalised response goes with CC[C@H](C)C(=O)O[C@H]1C[C@H](O)C=C2C=C[C@H](C)[C@H](CC[C@@H](O)C[C@@H](O)CC(=O)O)[C@H]21 [Pravastatin] (1000 nM) ? 98.5%

What measured normalised response goes with O=C(O)CCCCC(CCSCc1ccccc1)SCc1ccccc1 (centres undefined) [CPI-613] (10000 nM) ? 97.6%

What measured normalised response goes with O=C(O)C(=O)O.[NH-][C@@H]1CCCC[C@H]1[NH-].[Pt+2] [Oxaliplatin] (100 nM) ? 76.6%

What measured normalised response goes with CC1=C(/C=C/C(C)=C/C=C/C(C)=C/C(=O)O)C(C)(C)CCC1 [Tretinoin] (10000 nM) ? 103%

What measured normalised response goes with O=C(Cc1ccc(-c2ccc(OCCN3CCOCC3)cc2)cn1)NCc1ccccc1 [KX2-391] (1000 nM) ? 44.2%

What measured normalised response goes with Nc1nc2[nH]cc(CCc3ccc(C(=O)N[C@@H](CCC(=O)O)C(=O)O)cc3)c2c(=O)[nH]1 [Pemetrexed] (100 nM) ? 90.4%

What measured normalised response goes with Nc1nc2[nH]cc(CCc3ccc(C(=O)N[C@@H](CCC(=O)O)C(=O)O)cc3)c2c(=O)[nH]1 [Pemetrexed] (1000 nM) ? 103%

What measured normalised response goes with CCN(CC)CCCC(C)Nc1c2ccc(Cl)cc2nc2ccc(OC)cc12 (centres undefined) [Mepacrine] (5000 nM) ? 97.6%

What measured normalised response goes with COc1cc([C@@H]2c3cc4c(cc3[C@@H](O[C@@H]3O[C@@H]5CO[C@@H](c6cccs6)O[C@H]5[C@H](O)[C@H]3O)[C@H]3COC(=O)[C@H]23)OCO4)cc(OC)c1O [Teniposide] (10000 nM) ? 48.8%

What measured normalised response goes with Oc1ncc(N(CCCl)CCCl)c(O)n1 [Uracil mustard] (10000 nM) ? 100%

What measured normalised response goes with O=C(O)C(=O)O.[NH-][C@@H]1CCCC[C@H]1[NH-].[Pt+2] [Oxaliplatin] (10000 nM) ? 93%

What measured normalised response goes with CNC(=O)c1cc(Oc2ccc(NC(=O)Nc3cc(C(C)(C)C)nn3-c3ccc4ncccc4c3)c(F)c2)ccn1 [Rebastinib] (100 nM) ? 95.3%

What measured normalised response goes with COc1cc2c(NC3CCN(C(C)C)CC3)nc(C3CCCCC3)nc2cc1OCCCN1CCCC1 [UNC0638] (10000 nM) ? 36.8%

What measured normalised response goes with COc1cc2nccc(Oc3ccc(NC(=O)Nc4cc(C)on4)c(Cl)c3)c2cc1OC [Tivozanib] (100 nM) ? 103%

What measured normalised response goes with CCN(CC)CCCC(C)Nc1c2ccc(Cl)cc2nc2ccc(OC)cc12 (centres undefined) [Mepacrine] (500 nM) ? 96.9%

What measured normalised response goes with COc1cc2c(Oc3ccc4[nH]c(C)cc4c3F)ncnc2cc1OCCCN1CCCC1 [Cediranib] (100 nM) ? 84.1%
